# test.description: Protein binding in plasma (unknown origin)
# Format: ADME, cell-free
# assay.context: read-out: PPB (converted)
readout: fraction unbound

{"chem.smiles": "Cc1ncc(C(=O)Nc2ccc(-c3cccc(S(=O)(=O)C4CC4)c3)cn2)cn1", "observed.value": 0.022}

The following compounds each have a reported value; give each one's fraction unbound.
1. Cc1ncc(C(=O)Nc2ccc(-c3ccsc3)cn2)cn1
2. Cc1ncc(C(=O)Nc2ccc(-c3cccc(OC4CC4)c3)cn2)cn1

Response line:
[0.0507, 0.0061]

###

# tested.on: UniProt P33261
# Sequence (P33261 whole entry): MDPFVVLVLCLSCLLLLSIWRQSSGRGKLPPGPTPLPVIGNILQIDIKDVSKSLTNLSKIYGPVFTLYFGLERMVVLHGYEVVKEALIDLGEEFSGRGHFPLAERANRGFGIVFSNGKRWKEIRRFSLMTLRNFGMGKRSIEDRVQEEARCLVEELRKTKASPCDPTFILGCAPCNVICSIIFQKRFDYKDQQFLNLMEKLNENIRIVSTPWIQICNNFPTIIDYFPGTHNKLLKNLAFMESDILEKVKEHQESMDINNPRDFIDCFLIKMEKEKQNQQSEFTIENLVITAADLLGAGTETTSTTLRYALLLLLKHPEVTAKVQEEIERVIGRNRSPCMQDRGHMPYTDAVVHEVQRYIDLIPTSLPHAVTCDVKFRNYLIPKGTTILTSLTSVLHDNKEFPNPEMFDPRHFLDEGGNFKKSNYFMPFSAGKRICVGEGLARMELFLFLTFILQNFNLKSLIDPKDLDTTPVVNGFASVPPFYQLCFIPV
readout: IC50

A selection of reference data follows.
{"chem.smiles": "Cc1ncc(C(=O)Nc2ccc(-c3ccsc3)cn2)cn1", "tested.on": "UniProt P33261", "IC50": "> 30 µM"}
{"chem.smiles": "Cc1ncc(C(=O)Nc2ccc(-c3cccc(S(=O)(=O)C4CC4)c3)cn2)cn1", "tested.on": "UniProt P33261", "IC50": "> 30 µM"}

Prompt line: Can you look up IC50 on UniProt P33261 for Cc1ncc(C(=O)Nc2ccc(-c3cccc(OC4CC4)c3)cn2)cn1 ?
Response line: > 30 µM
